# System: HCT-15 colon
# test: NCI tumour cell line growth inhibition, 48 h
quantity: TGI

Reference set (5 entries):
GET /value?item= CCCCC(SC(=S)N(CC)CC)C(=O)Nc1nc(CC(=O)OCC)cs1 (stereo not drawn) &field=TGI returns > 100 µM

GET /value?item= COC(OC)C1(c2ccccc2)Oc2ccccc2C1=O (stereo not drawn) &field=TGI returns > 100 µM

GET /value?item= "O=C(/C=C/c1ccccc1Cl)c1ccc(O)cc1" &field=TGI returns 11.1 µM

GET /value?item= "CCOC(=O)c1c(Nc2ccccc2)sc2cccnc12" &field=TGI returns 58.3 µM

GET /value?item= "O=C(COC(c1ccc(F)cc1)c1ccc(F)cc1)N1CCN(CCCc2ccccc2)CC1" &field=TGI returns 11.4 µM

Items follow; give TGI for each.
1. Clc1cccc(Cn2cc(Cc3cn(Cc4cccc(Cl)c4)c4ccccc34)c3ccccc32)c1
2. COc1cccc2c3cccc(OC)c3c3[nH]cnc3c12
3. CC(=O)O[C@@]12[C@@H]3O[C@@]4(O)C[C@]5(C)[C@H]6C[C@@](C(C)C)(O[C@H]5c5ccoc5)O[C@H]1[C@]6(C4)O[C@]2(O)C(C)=CC3(C)C

["> 100 µM", "3.42 µM", "> 100 µM"]

Items follow; give TGI for each.
1. O=c1oc2ccccc2c(-c2ccc(O)cc2)c1Oc1ccc(Cl)cc1
2. Nc1ccccc1S(=O)c1ccccc1 (stereo not drawn)
3. Cc1ccc(NC(=O)C2C(=O)C(=O)N(c3ccc(C)cc3)C2=O)cc1 (stereo not drawn)
4. OCC1OC(n2ccc3cnccc32)CC1O (stereo not drawn)
5. CC(C)(C)OC(=O)N1C[C@H](CC(=O)OCc2ccccc2)C[C@H]1C(=O)OCC(Cl)(Cl)Cl
6. NC(=O)c1ncn(C2OC(CO)C(O)C2O)n1 (stereo not drawn)
7. NCCCCN

["> 100 µM", "> 100 µM", "> 100 µM", "> 100 µM", "> 50 µM", "> 100 µM", "> 100 µM"]

Items follow; give TGI for each.
1. COC1=C(C)C(=O)C2C(C1=O)C(c1ccc(OC)c(OC)c1)[C@H]2C (stereo partly drawn)
2. Nc1sccc1S(=O)(=O)c1ccsc1N
3. COc1ccccc1/C=C1\CCC(CN(C)C)C1=O (stereo not drawn)

["> 100 µM", "> 100 µM", "7.85 µM"]

Items follow; give TGI for each.
1. COc1cccc(/C=N/[N-]C(N)=O)c1[O-].[Cu+2].[OH3+].c1cnc2c(c1)ccc1cccnc12
2. CCOC(=O)C(C)OC(=O)c1ccc(C)cc1 (stereo not drawn)
3. Cc1cc(C)c2c(=O)n(CN3CCN(c4ccccc4)CC3)sc2n1
4. CCS(=O)(=O)c1ccc(OC)c(Nc2ncc(-c3cccc(-c4ccccc4F)c3)o2)c1
5. CCN(CC)C(=O)C1=C(C)NC(C)=C(C(=O)N(CC)CC)C1

> 100 µM
> 100 µM
50.7 µM
> 25 µM
> 100 µM

###

# Tested on: SF-295 CNS
# test: NCI tumour cell line growth inhibition, 48 h
Please respond with reported TGI for every item in the list.

GET /value?item= "Cc1cc(=O)[nH]c(CNC(=O)c2cccc3ccccc23)n1" &field=TGI returns > 100 µM

Items follow; give TGI for each.
1. C[CH2][Sn]1([CH2]C)[O]C2C(O)OC(CO)C(O)C2[O]1 (stereo unspecified)
2. COC(=N)C(C)C
3. CCOC(=O)N/N=C/C1=NN(C(=O)OCC)S(=O)C1C (stereo unspecified)
4. CCCCCCCCCCCCCCCCCC(=O)[O][Sn]([CH2]CCC)([CH2]CCC)[CH2]CCC
5. Cc1cc(N2CCOCC2)nc(N(CCNc2ccnc3cc(Cl)ccc23)Cc2ccco2)n1
6. COc1cc(C2=Nc3c/c(=C\c4c(O)[nH]c5ccc(Cl)cc45)ccc3=N2)cc(OC)c1OC

["> 100 µM", "> 100 µM", "> 100 µM", "0.435 µM", "3.64 µM", "29.7 µM"]

Items follow; give TGI for each.
1. CSc1sc(C)cc1-c1nsc(=O)o1
2. CCCCCCOC(=O)C(N)Cc1ccc(OC)cc1 (stereo unspecified)

1: > 100 µM; 2: > 100 µM

Items follow; give TGI for each.
1. CNC(=O)c1cc(Oc2ccc3nc(NC(=O)c4cc(C(F)(F)F)cc(C(F)(F)F)c4)sc3c2)ccn1
2. O=Cc1ncc(-c2ccc(C(F)(F)F)cc2)c(NC2CCCCCC2)n1
3. Cc1cc2c(cc1Cl)SC(NN(C)C)=NS2(=O)=O

1: 10.5 µM; 2: > 10 µM; 3: > 10 µM

Items follow; give TGI for each.
1. NS(=O)(=O)c1cc(S(N)(=O)=O)c(NC(=O)Nc2ccc(Cl)c(Cl)c2)c(Cl)c1Cl
2. O=C(O)c1cnccc1-c1cc(=O)[nH]n1-c1ccccc1
3. CC(C)CC(=O)N1CCN(C(=O)CC(C)C)c2ccccc21
4. O=S1Cc2ccccc2CS1 (stereo unspecified)
5. CCCCC(SC(=S)N(CC)CC)C(=O)Nc1nc(CC(=O)OCC)cs1 (stereo unspecified)
6. CCOC(=O)c1c(Nc2ccccc2)sc2cccnc12
7. O=C(CSc1nc2ccc(Cl)cc2c(=O)n1-c1ccccc1)N=Nc1c(O)[nH]c2ccc(F)cc12

["> 100 µM", "> 63.8 µM", "> 100 µM", "> 100 µM", "> 100 µM", "49.9 µM", "14.9 µM"]

Items follow; give TGI for each.
1. CC(C)c1ccc2c(c1)[C@@]1(C)CC[C@H](C)C(C)(C)C1CC2 (stereo partly specified)
2. CC(=O)OC[C@@]12CC[C@H]3C(C)(C)CCC[C@]3(C)[C@H]1C[C@@H](C1=CC(=O)O[C@H]1O)O2
3. CCOC(=O)[C@H](Cc1ccccc1)NC(=O)c1nc[nH]c1[N+](=O)[O-]

1. 38.3 µM
2. 21.3 µM
3. > 100 µM

Items follow; give TGI for each.
1. COc1ccc(C2Cc3cc(OC)c(OC)c(OC)c3C2=O)cc1 (stereo unspecified)
2. OCC1OC(n2ccc3cnccc32)CC1O (stereo unspecified)
3. CCOc1cc(NC(C)=O)ccc1C(=O)N/N=C/c1ccco1
4. CNC(=S)NNC(=O)c1c(C)nc2sccn12

1: > 100 µM; 2: > 100 µM; 3: > 100 µM; 4: > 100 µM

###

Please respond with reported log10 TGI for every item in the list.
# System: LOX IMVI melanoma
# test: NCI tumour cell line growth inhibition, 48 h
All values: log10 TGI [µM].

Reference set (8 entries):
// returns log10 TGI for CC(C)c1ccc2c(c1)[C@@]1(C)CC[C@H](C)C(C)(C)C1CC2 (some centres not stated) with LOX IMVI melanoma; value = 1.51

// returns log10 TGI for "COc1cc(/C=C2\N=C(c3ccccc3)N(c3nc4c(Cl)cc(Cl)cc4s3)C2=O)ccc1O" with LOX IMVI melanoma; value = 1.73

// returns log10 TGI for "[Ce+3].[Cl-].[O-]/N=C(\c1ccccc1)c1ccccn1.[O-]/N=C(\c1ccccc1)c1ccccn1.[O-]/N=C(\c1ccccc1)c1ccccn1" with LOX IMVI melanoma; value = 1.81

// returns log10 TGI for CC(=O)OCC1OC(O[C@@H]2C[C@H]3C(C)(C)[C@H](OC(C)=O)CC[C@]3(C)[C@H]3CC[C@@]45C[C@H](O)C[C@H](C)[C@@H]4CC=C5[C@@]32C)C(O)C(O)C1O (some centres not stated) with LOX IMVI melanoma; value = 0.61

// returns log10 TGI for "CC(C)[C@@H]1NC(=O)[C@]2(C)CSC(=N2)c2csc(n2)CNC(=O)C[C@@H](/C=C/CCS)OC1=O" with LOX IMVI melanoma; value = -0.45

// returns log10 TGI for "CCOC(=O)c1c(NS(=O)(=O)c2ccc(Br)cc2)sc2c1CCCC2" with LOX IMVI melanoma; value = 1.44

// returns log10 TGI for "Nc1cccc(-c2nc3sccn3c2-c2ccnc(NCCCNS(=O)(=O)c3ccc(C(F)(F)F)cc3)n2)c1" with LOX IMVI melanoma; value = 1.21

// returns log10 TGI for "O=C(O[C@H]1CN[C@H](C#Cc2cc3ncnc(Nc4ccc(Cc5ccccc5)cc4)c3s2)C1)N1CCOCC1" with LOX IMVI melanoma; value = 0.90

Items follow; give log10 TGI for each.
1. Fc1ccc(C2(CCCN3CCc4[nH]c5cc(F)ccc5c4C3)OCCO2)cc1
2. O=C(/C=C/c1ccccc1Cl)c1ccc(O)cc1

1: 1.40; 2: 1.01

###

# Test system: OVCAR-5 ovarian
# test: NCI tumour cell line growth inhibition, 48 h
quantity: GI50

Reference set (6 entries):
GET /value?item= "C=C1C(=O)O[C@H]2[C@H]1CC/C(COC(=O)NCc1c[nH]c3ccc(OC)cc13)=C\CC[C@@]1(C)O[C@@H]21" &field=GI50 returns 2.14 µM

GET /value?item= "Cc1cc(N2CCOCC2)nc(N(CCNc2ccnc3cc(Cl)ccc23)Cc2ccco2)n1" &field=GI50 returns 9.4 µM

GET /value?item= COC(=O)C1=C(C(=O)Nc2cccnc2)C2OC1(C(Cc1ccccc1)Oc1ccccc1)C1OC21 (stereo not drawn) &field=GI50 returns 4.1 µM

GET /value?item= "C[C@H](Nc1ccc(C#N)n(C)c1=O)c1cc2cc(Cl)ccc2[nH]c1=O" &field=GI50 returns 66.6 µM

GET /value?item= "CCS(=O)(=O)c1ccc(OC)c(Nc2ncc(-c3cccc(-c4ccccc4F)c3)o2)c1" &field=GI50 returns 13 µM

GET /value?item= "COC(=O)c1c2c(c[n+]([O-])c1C)C(=O)C(NCc1ccccc1)=CC2=O" &field=GI50 returns 1.2 µM

Items follow; give GI50 for each.
1. COc1c(Nc2ncc(Cl)c(N[C@@H]3[C@H]4C=CC(C4)[C@@H]3C(N)=O)n2)ccc2c1CC[C@@H](N1CCOCC1)CC2
2. COc1ccc(S(=O)(=O)Nc2cc(/C=C\c3cc(OC)c(OC)c(OC)c3)cc(OC)c2OC)cc1OC
3. N#Cc1cc(-c2ccccc2)[nH]c1-c1nccc2ccccc12

1.4 µM
6.57 µM
31.7 µM

Items follow; give GI50 for each.
1. NC(=O)c1ncn(C2OC(CO)C(O)C2O)n1 (stereo not drawn)
2. CCc1ccc(/C(C#N)=C/C=C/c2ccccc2)cc1
3. O=C1OCC2=C1C(c1ccccc1)c1cc3c(cc1N2CCO)CCC3 (stereo not drawn)
4. O=C(Nc1cccc(-n2cc(-c3ccncc3)c(-c3cc(O)cc(Cl)c3)n2)c1)Nc1ccc(Cl)c(Cl)c1
5. C[C@@]12CCC[C@@](C)(C(=O)O)C1CC[C@]13C=C(CO)[C@](O)(CCC12)C3 (stereo partly drawn)

["> 100 µM", "7.06 µM", "0.203 µM", "2.14 µM", "> 100 µM"]

Items follow; give GI50 for each.
1. CCCCC(SC(=S)N(CC)CC)C(=O)Nc1nc(CC(=O)OCC)cs1 (stereo not drawn)
2. O=C(O[C@H]1CN[C@H](C#Cc2cc3ncnc(Nc4ccc(Cc5ccccc5)cc4)c3s2)C1)N1CCOCC1
3. COC(=O)C1=C2C3=C(C(=O)c4ccccc4C3=O)N(Cc3ccccc3)C2(OC(C)=O)C=CC1=O (stereo not drawn)
4. COc1cccc(C2=NN(C(C)=O)C(c3cc(OC)c(OC)c(OC)c3)C2)c1 (stereo not drawn)

1. 40.3 µM
2. 9 µM
3. 18.4 µM
4. 8.09 µM
